# Tested on: OVCAR-5
# Experiment description: Oncological test, cell growth against OVCAR-5
# Assay type: cell-based, human
# Condition summary: FIGS. 10 and 11
# Text: FIGS. 10 to 17 show the activity of compounds ESP—2.2, ESP—2.5 and ESP—31 according to the invention as well as the comparative examples ESP—2 and ESP—3 (Table 4) in relation to the concentration employed against various different cancer cells. […] The x-axis depicts the molar concentration of the respective compound on a logarithmical scale.
Measure: cell growth (inhibition / cytotoxic effect)

Compound	Result
O=c1ccn([C@@H]2O[C@H](CO)[C@@H](O)[C@H]2O)c(=O)[nH]1 [ESP—3, uridine, reference compound]	no activity
O=c1cnn([C@@H]2O[C@H](CO)[C@@H](O)[C@H]2O)c(=O)[nH]1 [ESP—2, 6-azauridine, reference compound]	no activity

----------
# System: HCT-15 cells
# Experiment description: Oncological test, cell growth against HCT-15
# Format: cell-based, human
# Condition summary: FIGS. 14 and 15
Measure: cell growth (inhibition / cytotoxic effect)

Molecule	Result
CCOC(=O)CC[C@@]1(C)OC2C(O1)[C@@H](COC(c1ccccc1)(c1ccccc1)c1ccc(OC)cc1)O[C@H]2n1ncc(=O)[nH]c1=O (stereo partly shown) [ESP—2.2]	increased activity
CCOC(=O)CC[C@]1(C)OC2[C@@H](CO)O[C@@H](n3ncc(=O)n(C/C=C(\C)CCC=C(C)CCC=C(C)C)c3=O)[C@H]2O1 (stereo partly shown) [ESP—2.5]	increased activity
